Collected GI50 values appear next to each entry.
tested on: MCF7; assay: NCI tumour cell line growth inhibition, 48 h
Active and inactive are the calls of the source. Rule as the data show it: active = GI50 up to about 1.1 µM and inactive = higher.
measurement_kind: GI50

>>> recorded_value("CC(=O)Nc1ccc(OC2=CCN(C)CC2)cc1")
"> 100 µM (inactive)"
>>> recorded_value("CC(=O)Oc1ccc2c(C)cc(=O)oc2c1")
"> 100 µM (inactive)"
>>> recorded_value("CN1CCc2[nH]nc(-c3n[nH]c4c3CN(C)CC4)c2C1")
"> 100 µM (inactive)"

###

system: COLO 205; test: NCI tumour cell line growth inhibition, 48 h
Activity calls are given as the source filed them. Rule as the data show it: active = GI50 up to about 1.1 µM and inactive = higher.
measurement_kind: GI50

>>> recorded_value("CCCCNC(=S)Nc1nc(C(=O)NNS(=O)(=O)c2ccccc2)cs1")
"17.9 µM (inactive)"
>>> recorded_value("CC(=NNC(=S)Nc1ccc(C)cc1)c1cccc(C(C)=NNC(=S)Nc2ccc(C)cc2)n1")
"3.83 µM (inactive)"
>>> recorded_value("C=C1C(O)C2(O)OCC34C(CC5C(C)=CC(=O)C(O)C5(C)C23)OC(=O)C(OC(=O)C/C=C(\\C)CCCCC)C14 (stereo not given)")
"0.0154 µM (active)"
>>> recorded_value("COC1C(OC(N)=O)C(O)C(Oc2ccc3c(O)c(NC(=O)c4ccc(O)c(CC=C(C)C)c4)c(=O)oc3c2C)OC1(C)C (stereo not given)")
"> 100 µM (inactive)"
>>> recorded_value("FC(F)(F)c1cccc(C2SCc3nc4ccccc4n32)c1 (stereo not given)")
"> 100 µM (inactive)"
>>> recorded_value("CN1CCc2[nH]nc(-c3n[nH]c4c3CN(C)CC4)c2C1")
"> 100 µM (inactive)"
>>> recorded_value("CC1CCC2(OC1)OC1CC3C4CC=C5CC(OC6OC(CO)C(OC7OC(C)C(OC8OC(C)C(O)C(O)C8O)C(O)C7O)C(O)C6OC6OC(C)C(O)C(O)C6O)CCC5(C)C4CCC3(C)C1C2C (stereo not given)")
"1.28 µM (inactive)"
>>> recorded_value("C=CC1(C)CCC2C(=CCC3C2(C)CC(O)C(O)C3(C)COC2OC(CO)C(O)C(O)C2O)C1 (stereo not given)")
"> 100 µM (inactive)"
>>> recorded_value("CN(C)c1ccc(/C=N/Nc2nc3ccccc3c(=O)n2-c2ccccc2)cc1")
"> 100 µM (inactive)"
>>> recorded_value("COc1ccc2cc1Oc1ccc(cc1)CC1c3c(cc(OC)c4c3Oc3cc5c(cc3O4)CCNC5C2)CCN1C (stereo not given)")
"1.72 µM (inactive)"
>>> recorded_value("O=C1/C(=C/c2ccccc2)CNC/C1=C\\c1ccccc1")
"1.58 µM (inactive)"
>>> recorded_value("CCN(CC)c1ccc2cc(C(=O)Nc3cccc4ccccc34)c(=N)oc2c1")
"> 100 µM (inactive)"
>>> recorded_value("NC(=O)c1cc2ccc(O)cc2o/c1=N/c1ccccc1")
"18.5 µM (inactive)"
>>> recorded_value("O=C(C/C(=N/O)c1cc(-c2ccccc2)no1)c1ccccc1")
"> 100 µM (inactive)"
>>> recorded_value("COc1ccc(C(CC2(c3ccc(OC)cc3)SCCCS2)NC(C)=O)cc1 (stereo not given)")
"25.1 µM (inactive)"
>>> recorded_value("NC(=O)CCC(Nc1c2ccccc2[n+]([O-])c2ccccc12)C(=O)O (stereo not given)")
"49.1 µM (inactive)"
>>> recorded_value("CC(=O)Nc1ccc(-c2nc3cc(Cl)ccc3o2)cc1")
"> 50 µM (inactive)"
>>> recorded_value("Cc1no[n+]([O-])c1/C=N/NS(=O)(=O)c1ccccc1")
"> 100 µM (inactive)"
>>> recorded_value("CC1=C(C(=O)NNC(=O)CC#N)CC(C(=O)NNC(=O)CC#N)=C(C)N1")
"> 100 µM (inactive)"
>>> recorded_value("N#Cc1nc(-c2cccnc2)oc1N")
"> 100 µM (inactive)"
